FYI, the data here is from patent US20240287172A1.

Molecular target: T1, human iRhom2, endogenously expressed (human, UniProt Q6PJF5 1-856); note: test concentration or dose not given here
T1 sequence: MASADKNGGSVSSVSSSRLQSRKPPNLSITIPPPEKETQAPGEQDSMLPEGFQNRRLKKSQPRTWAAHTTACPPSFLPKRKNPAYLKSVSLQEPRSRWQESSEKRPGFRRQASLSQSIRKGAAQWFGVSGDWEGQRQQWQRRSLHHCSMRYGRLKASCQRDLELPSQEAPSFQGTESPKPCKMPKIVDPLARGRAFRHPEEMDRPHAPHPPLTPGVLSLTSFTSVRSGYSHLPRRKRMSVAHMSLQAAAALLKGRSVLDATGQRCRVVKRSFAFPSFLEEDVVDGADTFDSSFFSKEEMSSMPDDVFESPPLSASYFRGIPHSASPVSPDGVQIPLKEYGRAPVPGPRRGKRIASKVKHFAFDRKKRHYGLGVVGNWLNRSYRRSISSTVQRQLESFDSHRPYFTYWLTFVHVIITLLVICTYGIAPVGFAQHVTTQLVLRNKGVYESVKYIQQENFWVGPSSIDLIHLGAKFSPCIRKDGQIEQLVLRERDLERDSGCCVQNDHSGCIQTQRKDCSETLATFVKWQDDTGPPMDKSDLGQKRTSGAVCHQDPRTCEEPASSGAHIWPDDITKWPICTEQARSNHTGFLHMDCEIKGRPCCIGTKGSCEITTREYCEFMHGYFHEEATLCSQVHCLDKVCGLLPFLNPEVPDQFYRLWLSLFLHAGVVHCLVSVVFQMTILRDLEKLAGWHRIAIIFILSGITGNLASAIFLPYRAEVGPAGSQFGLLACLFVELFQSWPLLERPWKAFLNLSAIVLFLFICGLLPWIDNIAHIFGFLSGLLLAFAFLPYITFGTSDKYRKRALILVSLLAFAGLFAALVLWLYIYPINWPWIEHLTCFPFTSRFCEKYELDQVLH
Test: cell-based or functional assay
Measured endpoint: LPS-induced TNFα release from THP-1 cells, percent inhibition, recombinant antibody (%)
State just the number; it will be interpreted in %.

These solved cases illustrate the format of a correct answer.
Param item = antibody 34 (antibody, V domains shown, mouse IgG, kappa light chain; also called clone #34; purified antibody 34) VH: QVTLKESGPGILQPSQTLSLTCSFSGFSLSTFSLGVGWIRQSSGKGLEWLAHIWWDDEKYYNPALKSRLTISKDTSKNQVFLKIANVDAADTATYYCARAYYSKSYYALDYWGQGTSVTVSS VL: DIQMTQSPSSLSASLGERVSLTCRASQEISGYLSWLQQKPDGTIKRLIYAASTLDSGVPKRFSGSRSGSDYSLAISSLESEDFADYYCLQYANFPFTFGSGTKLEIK ; retrieve measured LPS-induced TNFα release from THP-1 cells, percent inhibition, recombinant antibody. 73.8

What measured LPS-induced TNFα release from THP-1 cells, percent inhibition, recombinant antibody goes with antibody 42 (antibody, V domains shown, mouse IgG, kappa light chain; also called clone #42; purified antibody 42) VH: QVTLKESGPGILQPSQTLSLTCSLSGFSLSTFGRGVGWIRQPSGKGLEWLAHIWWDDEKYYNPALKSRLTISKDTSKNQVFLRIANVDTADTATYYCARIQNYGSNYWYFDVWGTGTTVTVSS VL: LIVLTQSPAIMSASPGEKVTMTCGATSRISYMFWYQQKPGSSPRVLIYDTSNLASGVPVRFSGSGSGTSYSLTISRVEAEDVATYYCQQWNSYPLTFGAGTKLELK ? 75.9

What LPS-induced TNFα release from THP-1 cells, percent inhibition, recombinant antibody value was documented for this binder, antibody 43 (antibody, V domains shown, mouse IgG, kappa light chain; also called clone #43; purified antibody 43) VH: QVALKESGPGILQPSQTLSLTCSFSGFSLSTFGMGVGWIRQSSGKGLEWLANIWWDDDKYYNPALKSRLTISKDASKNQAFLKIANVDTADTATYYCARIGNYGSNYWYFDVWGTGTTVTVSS VL: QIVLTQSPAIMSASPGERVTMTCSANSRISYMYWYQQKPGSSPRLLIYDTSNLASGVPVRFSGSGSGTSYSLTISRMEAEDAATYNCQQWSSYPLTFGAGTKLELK ? 78.5

LPS-induced TNFα release from THP-1 cells, percent inhibition, recombinant antibody lookup needed for antibody 22 (antibody, V domains shown, mouse IgG, kappa light chain; also called clone #22; purified antibody 22) VH: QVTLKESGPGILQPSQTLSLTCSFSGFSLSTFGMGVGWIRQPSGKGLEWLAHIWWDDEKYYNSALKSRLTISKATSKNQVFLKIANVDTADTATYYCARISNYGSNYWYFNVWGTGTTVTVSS VL: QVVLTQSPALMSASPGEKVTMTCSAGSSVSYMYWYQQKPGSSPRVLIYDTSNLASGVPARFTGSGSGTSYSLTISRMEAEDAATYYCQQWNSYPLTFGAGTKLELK , thanks. 78.4

Fill blank: measured LPS-induced TNFα release from THP-1 cells, percent inhibition, recombinant antibody of the binder antibody 44 (antibody, V domains shown, mouse IgG, kappa light chain; also called clone #44; purified antibody 44) VH: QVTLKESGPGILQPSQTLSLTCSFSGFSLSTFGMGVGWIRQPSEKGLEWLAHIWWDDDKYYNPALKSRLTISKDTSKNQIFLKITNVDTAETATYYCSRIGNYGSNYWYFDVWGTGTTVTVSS VL: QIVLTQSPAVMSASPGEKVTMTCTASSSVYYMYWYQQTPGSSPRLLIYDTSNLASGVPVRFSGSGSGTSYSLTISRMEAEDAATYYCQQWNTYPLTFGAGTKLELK is ____. 73.2

Which LPS-induced TNFα release from THP-1 cells, percent inhibition, recombinant antibody reading was recorded for the binder antibody 3 (antibody, V domains shown, mouse IgG, kappa light chain; also called clone #3; purified antibody 3) VH: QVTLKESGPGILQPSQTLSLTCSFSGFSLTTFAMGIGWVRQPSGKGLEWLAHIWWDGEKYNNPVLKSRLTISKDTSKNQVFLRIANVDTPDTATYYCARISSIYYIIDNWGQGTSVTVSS VL: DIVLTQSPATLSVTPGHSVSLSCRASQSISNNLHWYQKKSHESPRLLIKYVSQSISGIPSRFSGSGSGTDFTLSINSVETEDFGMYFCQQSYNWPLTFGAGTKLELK ? 59.9

Reported LPS-induced TNFα release from THP-1 cells, percent inhibition, recombinant antibody, binder antibody 46 (antibody, V domains shown, mouse IgG, kappa light chain; also called clone #46) VH: QVTLKESGPGILQPSQTLSLTCSFSGFSLSTFGMGVGWIRQPSGKGLEWLAHIWWDDDNYYNQALKSRLTISKDNTKNQVFLNIANVDTADTATYYCARIRSYDYDVRYAMDYWGQGTSVTVSS VL: DIKMTQSPSSMYASLRERVTITCKASQDINSYLSWFQQKPGKSPKTLIYRANRLVDGVPSRFSGSGSGQDYSLTISSLEYEDLGIYYCQQYYEFPLTFGAGTRLELK : ____ 36.1

Now turn to the next binder.
Entry antibody 16 (antibody, V domains shown, mouse IgG, kappa light chain; also called clone #16; purified antibody 16) VH: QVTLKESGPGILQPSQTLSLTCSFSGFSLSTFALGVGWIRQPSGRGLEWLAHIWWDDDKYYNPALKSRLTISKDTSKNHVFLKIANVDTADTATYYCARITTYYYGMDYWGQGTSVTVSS VL: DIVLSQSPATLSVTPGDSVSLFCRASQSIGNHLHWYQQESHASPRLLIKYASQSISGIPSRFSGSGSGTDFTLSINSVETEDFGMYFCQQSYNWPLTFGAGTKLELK has what LPS-induced TNFα release from THP-1 cells, percent inhibition, recombinant antibody? 70.7
